The reported measurements were obtained from PubChem BioAssay AID2060488.

# System: 966289-007-R4-J1-PDC complex spheroid viability;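 note: spheroids exposed to the agents for seven days before readout; percent viability relative to DMSO vehicle control wells taken as 100%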
# METHOD_SUMMARY: Anticancer human tumor 966289-007-R4-J1-PDC patient-derived pancreatic adenocarcinoma cell line growth inhibition [GQUAD]
# MEASUREMENT_PARAMETERS: second compound 0.0316 µM; first compound 3.16 µM; stronger effect = lower value
So basically, if viability, T/C comes in under 7% it's label 1, and if it's 7% or more it's label 0.

Examples from the recorded data:
COMPOUND	ASSIGNED_LABEL
Cc1cccc(N(C)C(=O)C2C(O)CCN2c2nc(C)cc(C(F)(F)F)c2C#N)c1 (stereo not given) + CN(C)c1ccc(Nc2c3ccc(NC(=O)CCN4CCCC4)cc3nc3cc(NC(=O)CCN4CCCC4)ccc23)cc1	label 0
COc1cc(C2c3cc4c(cc3C(OC3OC5COC(C)OC5C(O)C3O)C3COC(=O)C23)OCO4)cc(OC)c1O (stereo not given) + Cc1[nH]c2ccc(F)cc2c1-c1nc2c3cccnc3c3ncccc3c2[nH]1	label 1
O=C(c1cc(Cc2n[nH]c(=O)c3ccccc23)ccc1F)N1CCN(C(=O)C2CC2)CC1 + Cc1cnc(CNC(=O)c2c(=O)c3ccc(N4CCCN(C)CC4)nc3n3c2sc2ccccc23)cn1	label 0

Turning now to a further record.
[in] Here's an entry: Nc1ccn(C2OC(CO)C(O)C2(F)F)c(=O)n1 (stereo not given) + Cc1cnc(CNC(=O)c2c(=O)c3ccc(N4CCCN(C)CC4)nc3n3c2sc2ccccc23)cn1 . Is its viability, T/C below 7%?
[out] label 1
